Subject of test: Glucocorticoid receptor (Homo sapiens) (UniProt P04150)
Sequence (P04150 whole entry, looked up): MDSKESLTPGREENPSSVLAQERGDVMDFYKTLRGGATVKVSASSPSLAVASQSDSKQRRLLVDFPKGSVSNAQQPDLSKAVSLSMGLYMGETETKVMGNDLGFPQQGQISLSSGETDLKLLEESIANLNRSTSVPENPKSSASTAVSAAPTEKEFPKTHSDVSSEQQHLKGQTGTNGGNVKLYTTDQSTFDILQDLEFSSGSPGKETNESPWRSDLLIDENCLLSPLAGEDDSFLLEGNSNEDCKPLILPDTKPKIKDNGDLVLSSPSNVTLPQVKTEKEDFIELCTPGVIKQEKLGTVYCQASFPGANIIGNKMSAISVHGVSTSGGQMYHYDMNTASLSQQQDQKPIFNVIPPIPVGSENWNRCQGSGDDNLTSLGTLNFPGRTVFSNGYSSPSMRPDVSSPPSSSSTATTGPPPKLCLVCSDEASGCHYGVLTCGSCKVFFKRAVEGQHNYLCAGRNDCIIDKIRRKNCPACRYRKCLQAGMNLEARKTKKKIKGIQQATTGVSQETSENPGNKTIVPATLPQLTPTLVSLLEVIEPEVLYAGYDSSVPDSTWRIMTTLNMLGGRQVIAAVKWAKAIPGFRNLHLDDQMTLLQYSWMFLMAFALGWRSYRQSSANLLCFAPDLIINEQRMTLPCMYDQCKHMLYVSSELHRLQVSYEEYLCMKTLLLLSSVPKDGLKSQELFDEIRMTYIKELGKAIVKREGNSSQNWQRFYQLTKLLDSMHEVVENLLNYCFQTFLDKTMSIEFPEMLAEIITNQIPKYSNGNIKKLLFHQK
Experiment summary: GR-GFP Redistribution (AID 450); further: potency means the concentration at half of the fitted maximal effect
Assay setup: U2OS GR-GFP nuclear translocation, laser cytometry, 2 h
Active and inactive are the calls of the source.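 How the source made its calls: active means compounds whose dose series gives a full or clear partial fitted curve of increased nuclear translocation; inconclusive means weak partial curve or effect only at the top dose; inactive means no dose-dependent translocation response.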
Listed molecules paired with reported Potency

Known Potency results, listed for orientation:
Molecule | Subject of test | Potency
CCNc1ncc2ncc(=O)n(Cc3ccc(F)cc3)c2n1 | Glucocorticoid receptor (Homo sapiens) (UniProt P04150) | > 9.22 µM (inactive)
Cc1nc2cnc(N3CCOCC3)nc2n(CCc2ccccc2)c1=O | Glucocorticoid receptor (Homo sapiens) (UniProt P04150) | > 9.22 µM (inactive)
CS(=O)(=O)Nc1cccc(-c2nc(Nc3ccncc3)c3ccccc3n2)c1 | Glucocorticoid receptor (Homo sapiens) (UniProt P04150) | > 46 µM (inactive)
O=c1ccc2cc3ccoc3cc2o1 | Glucocorticoid receptor (Homo sapiens) (UniProt P04150) | > 46 µM (inactive)
Cc1nc2cnc(OCc3ccccc3)nc2n(CCc2ccccc2)c1=O | Glucocorticoid receptor (Homo sapiens) (UniProt P04150) | > 9.22 µM (inactive)
O=C1C=C(NCCc2cc(Br)c(O)c(Br)c2)C(=O)c2ncccc21 | Glucocorticoid receptor (Homo sapiens) (UniProt P04150) | > 46 µM (inactive)
CC(NC(=O)Nc1ccc(O)cc1)(C(F)(F)F)C(F)(F)F | Glucocorticoid receptor (Homo sapiens) (UniProt P04150) | > 20.6 µM (inactive)
NS(=O)(=O)c1ccc(N=Nc2c[nH]c(=O)c(O)c2)cc1 | Glucocorticoid receptor (Homo sapiens) (UniProt P04150) | > 46 µM (inactive)

[Q] Please report the measured Potency for COc1ccc(Oc2ncc3nc(CCc4ccccc4)c(=O)n(CCC#N)c3n2)cc1
[A] > 9.22 µM (inactive)

[Q] Quote Potency reported for COc1ccccc1CNc1ncnc2ccc(-c3cccc(NS(C)(=O)=O)c3)cc12 please.
[A] > 46 µM (inactive)

[Q] Please supply the value of reported Potency for the item Cc1ccccc1-c1ccc2ncnc(-n3ccnc3)c2c1
[A] > 46 µM (inactive)

[Q] For the molecule O=c1oc2c3c4c(cc2c(C(F)(F)F)c1CCN1CCOCC1)CCCN4CCC3 , give its measured Potency value.
[A] > 20.6 µM (inactive)

[Q] For the molecule N#Cc1cccc(-c2ccc3ncnc(NCc4cccs4)c3c2)c1 , give its measured Potency value.
[A] > 46 µM (inactive)

[Q] Could you please provide reported Potency for CC(=O)NCCNc1nc(-c2cccc(C#N)c2)nc2ccccc12 ? Thanks!
[A] > 46 µM (inactive)

Origin of values: PubChem BioAssay (NCATS)
